System: Escherichia coli
Assay: Antibacterial activity against Escherichia coli NCIM 2688 after 8 hrs by serial dilution method
Assay type: functional, organism-based
Conditions: NCIM 2688, 8 h
Numbered stars: 1 amine (or outer) side, 2 acyl side, 3 side chain; on linkers, the order of the positions; unused ones are H or OH. Square brackets hold non-standard residues; d marks the D form. Peptide text beside a SMILES is read from it. Pro(N-(CH2)3Gua,cis-4-NH-) = N=C(N)NCCCN1C[C@@H](N[*:1])C[C@H]1C(=O)[*:2]; Pro(cis-4-guanidino) = NC(N)=N[C@@H]1CN[C@H](C(=O)O)C1; X1 = NCCCN1C[C@@H](N[*:1])C[C@H]1C(=O)[*:2]; Ethylenediamine = C(CN[*:2])N[*:1]; βAla = NCCC(=O)O
Kindly apply the following: Met if MIC is less than 7 µM, Not met in every other case.

Field: example entries. Status: answers known.
compound	studyTarget	categoryLabel
CC(=O)N[C@@H](Cc1ccccc1)C(=O)NCC(=O)N[C@H]1C[C@@H](C(=O)N[C@@H](CCCCN)C(=O)N[C@@H](CCCCN)C(=O)N[C@@H](CCCNC(=N)N)C(=O)N[C@H]2C[C@@H](C(=O)N[C@@H](CCC(N)=O)C(=O)N[C@H]3C[C@@H](C(=O)N[C@@H](CCCNC(=N)N)C(=O)N[C@H]4C[C@@H](C(=O)NCCN)N(CCCN)C4)N(CCCN)C3)N(CCCN)C2)N(CCCN)C1 (Ac-FG[X1]KKR[X1]Q[X1]R[X1]-Ethylenediamine)	Escherichia coli	Met
CC(=O)N[C@@H](Cc1ccccc1)C(=O)NCC(=O)N[C@H]1C[C@@H](C(=O)N[C@@H](CCCCN)C(=O)N[C@@H](CCCCN)C(=O)N[C@@H](CCCNC(=N)N)C(=O)N[C@H]2C[C@@H](C(=O)N[C@@H](CCC(N)=O)C(=O)N[C@@H](CCCNC(=N)N)C(=O)N[C@@H](CCCNC(=N)N)C(=O)N[C@H]3C[C@@H](C(=O)NCCC(N)=O)N(CCCN)C3)N(CCCN)C2)N(CCCN)C1 (Ac-FG[X1]KKR[X1]QRR[X1][βAla]-NH2)	Escherichia coli	Met
CC1(C)S[C@@H]2[C@H](NC(=O)[C@H](N)c3ccccc3)C(=O)N2[C@H]1C(=O)O	Escherichia coli	Met
NC[C@H]1O[C@H](O[C@H]2[C@H](O)[C@@H](O[C@H]3O[C@H](CO)[C@@H](O)[C@H](N)[C@H]3O)[C@H](N)C[C@@H]2N)[C@H](O)[C@@H](O)[C@@H]1O	Escherichia coli	Met
CC(=O)N[C@@H](Cc1ccccc1)C(=O)NCC(=O)N1C[C@@H](NC(=N)N)C[C@H]1C(=O)N[C@@H](CCCCN)C(=O)N[C@@H](CCCCN)C(=O)N[C@@H](CCCNC(=N)N)C(=O)N1C[C@@H](NC(=N)N)C[C@H]1C(=O)N[C@@H](CCC(N)=O)C(=O)N[C@@H](CCCNC(=N)N)C(=O)N[C@@H](CCCNC(=N)N)C(=O)N1C[C@@H](NC(=N)N)C[C@H]1C(=O)NCCC(N)=O (Ac-FG[Pro(cis-4-guanidino)]KKR[Pro(cis-4-guanidino)]QRR[Pro(cis-4-guanidino)][βAla]-NH2)	Escherichia coli	Not met

Hello, is MIC of the following compound strictly smaller than 7 µM? CC(=O)N[C@@H](Cc1ccccc1)C(=O)NCC(=O)N[C@@H](CCCNC(=N)N)C(=O)N[C@@H](CCCCN)C(=O)N[C@@H](CCCCN)C(=O)N[C@H]1C[C@@H](C(=O)N[C@@H](CCCNC(=N)N)C(=O)N[C@@H](CCC(N)=O)C(=O)N[C@@H](CCCNC(=N)N)C(=O)N[C@@H](CCCNC(=N)N)C(=O)N[C@@H](CCCNC(=N)N)C(=O)NCCC(N)=O)N(CCCNC(=N)N)C1 (Ac-FGRKK[Pro(N-(CH2)3Gua,cis-4-NH-)]RQRRR[βAla]-NH2) Not met

Hello, is MIC of the following compound strictly smaller than 7 µM? CC(=O)N[C@@H](Cc1ccccc1)C(=O)NCC(=O)N[C@H]1C[C@@H](C(=O)N[C@@H](CCCCN)C(=O)N[C@@H](CCCCN)C(=O)N[C@@H](CCCNC(=N)N)C(=O)N[C@H]2C[C@@H](C(=O)N[C@@H](CCC(N)=O)C(=O)N[C@@H](CCCNC(=N)N)C(=O)N[C@@H](CCCNC(=N)N)C(=O)N[C@H]3C[C@@H](C(=O)NCCC(N)=O)N(CCCNC(=N)N)C3)N(CCCNC(=N)N)C2)N(CCCNC(=N)N)C1 (Ac-FG[Pro(N-(CH2)3Gua,cis-4-NH-)]KKR[Pro(N-(CH2)3Gua,cis-4-NH-)]QRR[Pro(N-(CH2)3Gua,cis-4-NH-)][βAla]-NH2) Not met

###

Kindly supply the reported remaining at 12 h, 10000 µM values for the records listed here.
Assay: Drug degradation assessed as bovine pancreas chymotrypsin-mediated compound hydrolysis by measuring remaining compound levels at 10 mM measured at 12 hrs by RP-HPLC method
Type: ADME, Bos taurus
Conditions: cattle, read-out: Stability
Numbers only, in %.

CC(=O)N[C@@H](Cc1ccccc1)C(=O)NCC(=O)N[C@H]1C[C@@H](C(=O)N[C@@H](CCCCN)C(=O)N[C@@H](CCCCN)C(=O)N[C@@H](CCCNC(=N)N)C(=O)N[C@H]2C[C@@H](C(=O)N[C@@H](CCC(N)=O)C(=O)N[C@H]3C[C@@H](C(=O)N[C@@H](CCCNC(=N)N)C(=O)N[C@H]4C[C@@H](C(=O)NCCC(N)=O)N(CCCNC(=N)N)C4)N(CCCNC(=N)N)C3)N(CCCNC(=N)N)C2)N(CCCNC(=N)N)C1 100

Proceed to the following item.
Quote remaining at 12 h, 10000 µM reported for CC(=O)N[C@@H](Cc1ccccc1)C(=O)NCC(=O)N[C@@H](CCCNC(=N)N)C(=O)N[C@@H](CCCCN)C(=O)N[C@@H](CCCCN)C(=O)N[C@@H](CCCNC(=N)N)C(=O)N[C@@H](CCCNC(=N)N)C(=O)N[C@@H](CCC(N)=O)C(=O)N[C@@H](CCCNC(=N)N)C(=O)N[C@@H](CCCNC(=N)N)C(=O)N[C@@H](CCCNC(=N)N)C(N)=O please. 78.2

###

Kindly supply the reported IC50 values for the records listed here.
Test system: Staphylococcus aureus
Test: Antibacterial activity against Staphylococcus aureus NCIM 2010 after 12 hrs by serial dilution method
Format: functional, organism-based
Conditions: NCIM 2010, 12 h
Square brackets hold non-standard residues; d marks the D form. Peptide text beside a SMILES is read from it. Pro(cis-4-guanidino) = NC(N)=N[C@@H]1CN[C@H](C(=O)O)C1; βAla = NCCC(=O)O
Give bare numbers, in nM.

compound	studyTarget	outcomeMeasure	unit	readoutNumber
CC(=O)N[C@@H](Cc1ccccc1)C(=O)NCC(=O)N[C@@H](CCCNC(=N)N)C(=O)N[C@@H](CCCCN)C(=O)N[C@@H](CCCCN)C(=O)N[C@@H](CCCNC(=N)N)C(=O)N[C@@H](CCCNC(=N)N)C(=O)N[C@@H](CCC(N)=O)C(=O)N[C@@H](CCCNC(=N)N)C(=O)N[C@@H](CCCNC(=N)N)C(=O)N[C@@H](CCCNC(=N)N)C(N)=O	Staphylococcus aureus	IC50	nM	11.3

Proceed to the following item.
Quote IC50 reported for CC(=O)N[C@@H](Cc1ccccc1)C(=O)NCC(=O)N[C@@H](CCCNC(=N)N)C(=O)N[C@@H](CCCCN)C(=O)N[C@@H](CCCCN)C(=O)N[C@@H](CCCNC(=N)N)C(=O)N[C@@H](CCCNC(=N)N)C(=O)N[C@@H](CCC(N)=O)C(=O)N[C@@H](CCCNC(=N)N)C(=O)N[C@@H](CCCNC(=N)N)C(=O)N1C[C@@H](NC(=N)N)C[C@H]1C(=O)NCCC(N)=O (Ac-FGRKKRRQRR[Pro(cis-4-guanidino)][βAla]-NH2) please. 86

###

System: Staphylococcus epidermidis
Experiment: Antibacterial activity against Staphylococcus epidermidis NCIM 5270 after 12 hrs by serial dilution method
Assay type: functional, organism-based
Conditions: NCIM 5270, 12 h
Numbered stars: 1 amine (or outer) side, 2 acyl side, 3 side chain; on linkers, the order of the positions; unused ones are H or OH. Square brackets hold non-standard residues; d marks the D form. Peptide text beside a SMILES is read from it. X1 = NCCCN1C[C@@H](N[*:1])C[C@H]1C(=O)[*:2]; Ethylenediamine = C(CN[*:2])N[*:1]
outcomeMeasure: MIC (µM)
Answers are plain numbers, in µM.

Quote MIC reported for CC(=O)N[C@@H](Cc1ccccc1)C(=O)NCC(=O)N[C@H]1C[C@@H](C(=O)N[C@@H](CCCCN)C(=O)N[C@@H](CCCCN)C(=O)N[C@@H](CCCNC(=N)N)C(=O)N[C@H]2C[C@@H](C(=O)N[C@@H](CCC(N)=O)C(=O)N[C@H]3C[C@@H](C(=O)N[C@@H](CCCNC(=N)N)C(=O)N[C@H]4C[C@@H](C(=O)NCCN)N(CCCN)C4)N(CCCN)C3)N(CCCN)C2)N(CCCN)C1 (Ac-FG[X1]KKR[X1]Q[X1]R[X1]-Ethylenediamine) please. 3.94
